# Test system: A-431
# Protocol Notes: Antiproliferative activity against human A431 cells after 72 hrs by MTT assay
# Type: functional
# Assay Setup: A-431, 72 h
Recorded Endpoint: GI50

// known answers, use as guide
O=C1[C@@H]2[C@H](C(=O)N1CCCOP(=O)(OCC(Cl)(Cl)Cl)OCC(Cl)(Cl)Cl)[C@H]1CC[C@@H]2O1 = 80 µM
O=C1[C@@H]2[C@H](C(=O)N1[C@H]1CCCC[C@@H]1OP(=O)(OCC(Cl)(Cl)Cl)OCC(Cl)(Cl)Cl)[C@H]1CC[C@@H]2O1 = 48 µM
O=C1[C@@H]2[C@H](C(=O)N1CCCCOP(=O)(OCC(Cl)(Cl)Cl)OCC(Cl)(Cl)Cl)[C@H]1CC[C@@H]2O1 = 31 µM
O=C1[C@@H]2[C@H](C(=O)N1CCCCCCO)[C@H]1CC[C@@H]2O1 = > 100 µM
CCOP(=O)(OCC)OCCCCCN1C(=O)[C@@H]2[C@H](C1=O)[C@H]1CC[C@@H]2O1 = > 100 µM

Note: attention shifts to another entry.
Query: Supply recorded GI50 for CCOP(=O)(OCC)OCCCCN1C(=O)[C@@H]2[C@H](C1=O)[C@H]1CC[C@@H]2O1 here.
Reply: > 100 µM

###

# System: MCF7
# Protocol Notes: Antiproliferative activity against human MCF7 cells after 72 hrs by MTT assay
# Type: functional
# Assay Setup: MCF7, 72 h
GI50 less than 30 µM is condition met; GI50 greater than or equal to 30 µM is condition not met.

CCOP(=O)(OCC)OCCCCCN1C(=O)[C@@H]2[C@H](C1=O)[C@H]1CC[C@@H]2O1 = condition not met

Query: Quick check: does O=C1[C@@H]2[C@H](C(=O)N1CCCOP(=O)(OCC(Cl)(Cl)Cl)OCC(Cl)(Cl)Cl)[C@H]1CC[C@@H]2O1 have GI50 under 30 µM?
Reply: condition not met

Query: Quick check: does O=C1OC(=O)C2C3CCC(O3)C12 (configuration not stated) [DEMETHYL-CANTHARIDIN] have GI50 under 30 µM?
Reply: condition not met

###

# Test system: MCF7
# Protocol Notes: Antiproliferative activity against human MCF7 cells after 72 hrs by MTT assay
# Format: functional
# Assay Setup: MCF7, 72 h
Recorded Endpoint: GI50

CCOP(=O)(OCC)OCCCCCCN1C(=O)[C@@H]2[C@H](C1=O)[C@H]1CC[C@@H]2O1 = > 100 µM

Query: Supply recorded GI50 for O=C1c2ccccc2C(=O)N1CCCOP(=O)(Oc1ccccc1)Oc1ccccc1 here.
Reply: > 100 µM

Query: Supply recorded GI50 for CCOP(=O)(OCC)O[C@H]1CCCC[C@@H]1N1C(=O)[C@@H]2[C@H](C1=O)[C@H]1CC[C@@H]2O1 here.
Reply: 50 µM

Query: Supply recorded GI50 for O=C1[C@@H]2[C@H](C(=O)N1CCCCCCO)[C@H]1CC[C@@H]2O1 here.
Reply: > 100 µM

Query: Supply recorded GI50 for CCOP(=O)(OCC)OCCCCN1C(=O)[C@@H]2[C@H](C1=O)[C@H]1CC[C@@H]2O1 here.
Reply: > 100 µM

Query: Supply recorded GI50 for O=C1[C@@H]2[C@H](C(=O)N1CCCCCOP(=O)(Oc1ccccc1)Oc1ccccc1)[C@H]1CC[C@@H]2O1 here.
Reply: 31 µM

Query: Supply recorded GI50 for CCOP(=O)(OCC)OCCN1C(=O)[C@@H]2[C@H](C1=O)[C@H]1CC[C@@H]2O1 here.
Reply: 28 µM

###

# Test system: HT-29
# Protocol Notes: Antiproliferative activity against human HT-29 cells after 72 hrs by MTT assay
# Assay type: functional
# Assay Setup: HT-29, 72 h
Recorded Endpoint: GI50 (µM)
Record the value in µM, omitting the unit from your answer.

Query: Supply recorded GI50 for O=C1[C@@H]2[C@H](C(=O)N1CCCCCOP(=O)(Oc1ccccc1)Oc1ccccc1)[C@H]1CC[C@@H]2O1 here.
Reply: 42

Query: Supply recorded GI50 for O=C1[C@@H]2[C@H](C(=O)N1CCCOP(=O)(OCC(Cl)(Cl)Cl)OCC(Cl)(Cl)Cl)[C@H]1CC[C@@H]2O1 here.
Reply: 57

Query: Supply recorded GI50 for O=C1[C@@H]2[C@H](C(=O)N1CCCCCOP(=O)(OCC(Cl)(Cl)Cl)OCC(Cl)(Cl)Cl)[C@H]1CC[C@@H]2O1 here.
Reply: 15

Query: Supply recorded GI50 for O=C1[C@@H]2[C@H](C(=O)N1[C@H]1CCCC[C@@H]1OP(=O)(OCC(Cl)(Cl)Cl)OCC(Cl)(Cl)Cl)[C@H]1CC[C@@H]2O1 here.
Reply: 56

Query: Supply recorded GI50 for CCOP(=O)(OCC)O[C@H]1CCCC[C@@H]1N1C(=O)[C@@H]2[C@H](C1=O)[C@H]1CC[C@@H]2O1 here.
Reply: 57

Query: Supply recorded GI50 for O=C1OC(=O)C2C3CCC(O3)C12 (stereo unspecified) here.
Reply: 57

Query: Supply recorded GI50 for O=C1[C@@H]2[C@H](C(=O)N1CCCCCCOP(=O)(OCC(Cl)(Cl)Cl)OCC(Cl)(Cl)Cl)[C@H]1CC[C@@H]2O1 here.
Reply: 11

Query: Supply recorded GI50 for O=C1[C@@H]2[C@H](C(=O)N1CCCCOP(=O)(Oc1ccccc1)Oc1ccccc1)[C@H]1CC[C@@H]2O1 here.
Reply: 14

Query: Supply recorded GI50 for O=C1[C@@H]2[C@H](C(=O)N1[C@H]1CCCC[C@@H]1OP(=O)(Oc1ccccc1)Oc1ccccc1)[C@H]1CC[C@@H]2O1 here.
Reply: 11

Query: Supply recorded GI50 for CCOP(=O)(OCC)OCCN1C(=O)[C@@H]2[C@H](C1=O)[C@H]1CC[C@@H]2O1 here.
Reply: 33

Query: Supply recorded GI50 for O=C1[C@@H]2[C@H](C(=O)N1CCCCCCOP(=O)(Oc1ccccc1)Oc1ccccc1)[C@H]1CC[C@@H]2O1 here.
Reply: 5.4

Query: Supply recorded GI50 for O=C1[C@@H]2[C@H](C(=O)N1CCCCOP(=O)(OCC(Cl)(Cl)Cl)OCC(Cl)(Cl)Cl)[C@H]1CC[C@@H]2O1 here.
Reply: 16

###

# Protocol Notes: Antiproliferative activity against human SJ-G2 cells after 72 hrs by MTT assay
# Format: functional
# Assay Setup: SJ-G2, 72 h
GI50 less than 40 µM is 1; GI50 greater than or equal to 40 µM is -1.

Sample answers from the record:
O=C1[C@@H]2[C@H](C(=O)N1[C@H]1CCCC[C@@H]1OP(=O)(OCC(Cl)(Cl)Cl)OCC(Cl)(Cl)Cl)[C@H]1CC[C@@H]2O1 = -1
O=C1[C@@H]2[C@H](C(=O)N1CCCOP(=O)(Oc1ccccc1)Oc1ccccc1)[C@H]1CC[C@@H]2O1 = -1
O=C1[C@@H]2[C@H](C(=O)N1CCCCOP(=O)(Oc1ccccc1)Oc1ccccc1)[C@H]1CC[C@@H]2O1 = 1
CCOP(=O)(OCC)OCCCCN1C(=O)[C@@H]2[C@H](C1=O)[C@H]1CC[C@@H]2O1 = -1

Query: Quick check: does CCOP(=O)(OCC)OCCCCCCN1C(=O)[C@@H]2[C@H](C1=O)[C@H]1CC[C@@H]2O1 have GI50 under 40 µM?
Reply: -1

Query: Quick check: does O=C1[C@@H]2[C@H](C(=O)N1CCOP(=O)(Oc1ccccc1)Oc1ccccc1)[C@H]1CC[C@@H]2O1 have GI50 under 40 µM?
Reply: -1

Query: Quick check: does O=C1[C@@H]2[C@H](C(=O)N1CCOP(=O)(OCC(Cl)(Cl)Cl)OCC(Cl)(Cl)Cl)[C@H]1CC[C@@H]2O1 have GI50 under 40 µM?
Reply: -1

Query: Quick check: does O=C1[C@@H]2[C@H](C(=O)N1CCCCCCO)[C@H]1CC[C@@H]2O1 have GI50 under 40 µM?
Reply: -1

###

# key: entry, value: GI50
# Tested on: DU-145
# Protocol Notes: Antiproliferative activity against human DU145 cells after 72 hrs by MTT assay
# Assay type: functional
# Assay Setup: DU-145, 72 h
Record the value in µM, omitting the unit from your answer.

O=C1[C@@H]2[C@H](C(=O)N1CCCCCOP(=O)(OCC(Cl)(Cl)Cl)OCC(Cl)(Cl)Cl)[C@H]1CC[C@@H]2O1 = 26
CCOP(=O)(OCC)OCCN1C(=O)[C@@H]2[C@H](C1=O)[C@H]1CC[C@@H]2O1 = 21
CCOP(=O)(OCC)O[C@H]1CCCC[C@@H]1N1C(=O)[C@@H]2[C@H](C1=O)[C@H]1CC[C@@H]2O1 = 36
O=C1OC(=O)C2C3CCC(O3)C12 (stereo unspecified) = 28
O=C1[C@@H]2[C@H](C(=O)N1[C@H]1CCCC[C@@H]1OP(=O)(Oc1ccccc1)Oc1ccccc1)[C@H]1CC[C@@H]2O1 = 35
O=C1[C@@H]2[C@H](C(=O)N1CCCCCCOP(=O)(OCC(Cl)(Cl)Cl)OCC(Cl)(Cl)Cl)[C@H]1CC[C@@H]2O1 = 13
O=C1[C@@H]2[C@H](C(=O)N1CCCCCOP(=O)(Oc1ccccc1)Oc1ccccc1)[C@H]1CC[C@@H]2O1 = 52
O=C1[C@@H]2[C@H](C(=O)N1CCCCOP(=O)(Oc1ccccc1)Oc1ccccc1)[C@H]1CC[C@@H]2O1 = 13
O=C1[C@@H]2[C@H](C(=O)N1CCCCCCOP(=O)(Oc1ccccc1)Oc1ccccc1)[C@H]1CC[C@@H]2O1 = 7
O=C1[C@@H]2[C@H](C(=O)N1CCCCOP(=O)(OCC(Cl)(Cl)Cl)OCC(Cl)(Cl)Cl)[C@H]1CC[C@@H]2O1 = 49

Note: attention shifts to another entry.
Query: Supply recorded GI50 for O=C1[C@@H]2[C@H](C(=O)N1[C@H]1CCCC[C@@H]1OP(=O)(OCC(Cl)(Cl)Cl)OCC(Cl)(Cl)Cl)[C@H]1CC[C@@H]2O1 here.
Reply: 69

Where do these numbers come from? They come from ChEMBL document CHEMBL1821633.
